# study target: T1, human immunoglobulin E (hIgE) (human, UniProt P01854-1 1-428)
# T1 construct: also called human IgE; Native IgE (Abcam)
# T1 sequence (P01854 whole entry): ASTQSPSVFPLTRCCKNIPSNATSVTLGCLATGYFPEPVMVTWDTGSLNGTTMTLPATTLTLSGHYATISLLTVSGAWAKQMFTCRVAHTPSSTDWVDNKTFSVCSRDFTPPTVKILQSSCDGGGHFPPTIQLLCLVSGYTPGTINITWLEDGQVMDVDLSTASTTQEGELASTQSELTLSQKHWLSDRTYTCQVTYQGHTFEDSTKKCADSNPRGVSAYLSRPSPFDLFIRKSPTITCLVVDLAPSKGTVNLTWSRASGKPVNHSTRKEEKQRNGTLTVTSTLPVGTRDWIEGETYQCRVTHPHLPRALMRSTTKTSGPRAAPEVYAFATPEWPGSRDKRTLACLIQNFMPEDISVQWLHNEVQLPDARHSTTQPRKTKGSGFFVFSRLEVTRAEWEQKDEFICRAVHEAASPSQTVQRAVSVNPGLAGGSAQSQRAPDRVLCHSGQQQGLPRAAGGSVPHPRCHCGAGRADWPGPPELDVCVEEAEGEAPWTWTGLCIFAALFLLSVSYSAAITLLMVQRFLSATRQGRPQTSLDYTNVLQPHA
# assay notes: SPR (Biacore), pH 7.4
measured parameter: pKd
pKd is a log-scale quantity: -log10 of the concentration expressed in molar.

According to the records, this binder OmaVH15G55HW100b - VL3S31H (antibody, V domains shown) VH: EVQLVESGGGLVQPGGSLRLSCAVSGYSITSGHRWEWIRQAPGKGLEWVASIHYDHSTNYNPSVKGRITISRDDSKNTFYLQMNSLRAEDTAVYYCARATHYFGHHHFAVWGQGTLVTVSS VL: DIQLTQSPSSLSASVGDRVTITCRASQSVDYDGDHYMNWYQQKPGKAPKLLIEWGSYLRSGVPSRFSGSGSGTDFTLTISSLQPEDFATYYCQQNAEDPYTFGQGTKVEIK displays pKd of 7.81

This collection of values is drawn from patent US20220177604A1.
